- Tested on: Staphylococcus aureus bacteria (ATCC 9604 SV)
- testDetails: Minimal inhibitory concentration (MIC), broth microdilution
- Assay type: cell-based
- conditions: Staphylococcus aureus ATCC 9604 SV, 24 h at 37° C.
- Experimental: Minimal inhibitory concentrations (MICs) for Staphylococcus aureus bacteria (ATCC 9604 SV) were determined by broth microdilution methodology following National Committee for Clinical Laboratory Standards. […] After three to five hours incubation at 37° C., the turbidity was measured at 550 nm and inhibitory activity was defined as the concentration of antimicrobial agent that inhibits 50% growth of the organism in the microdilution wells.
One threshold, 1 µg/mL, splits the recorded MIC values: lower ones are true, equal or higher ones are false.

{"compound": "O=C(Nc1cc(C(F)(F)F)cc(C(F)(F)F)c1)Nc1nc(Cc2ccccc2)cs1 [Compound 130]", "categoryLabel": "false"}
{"compound": "CC(=O)C=C1C(=O)N(c2cc(Cl)cc(Cl)c2)N=C1c1ccccc1 [Compound 25]", "categoryLabel": "false"}
{"compound": "CN(C)CCCOc1ccc(C=C2C(=O)N(c3cc(Cl)cc(Cl)c3)N=C2c2ccccc2)cc1 [Compound 28]", "categoryLabel": "false"}
{"compound": "O=C(Nc1ccc(SC(F)(F)F)cc1)Nc1nc(-c2ccc(F)c(F)c2)cs1 [Compound 161]", "categoryLabel": "true"}
{"compound": "O=C(Nc1cc(C(F)(F)F)cc(C(F)(F)F)c1)Nc1nc(-c2cccs2)cs1 [Compound 155]", "categoryLabel": "false"}
{"compound": "CCOC(=O)C1=NN(c2cc(Cl)cc(Cl)c2)C(=O)C1 [Compound 67]", "categoryLabel": "false"}
{"compound": "O=C1CC(c2cccc(F)c2)=NN1c1cc(Cl)cc(Cl)c1 [Compound 15]", "categoryLabel": "true"}
{"compound": "Cn1cc(C=C2C(=O)N(c3cc(Cl)cc(Cl)c3)N=C2c2ccccc2)c2ccccc21 [Compound 43]", "categoryLabel": "true"}
